# MEASUREMENT_PROTOCOL: Growth inhibition of human A549 cells by MTT assay
# Format: cell-based
# MEASUREMENT_SETUP: A549 cells
MEASURED_QUANTITY: GI50

Reference set, count: 5
Cc1nc(-c2ccc(F)cc2)oc1-c1csc(Cc2ccccc2)n1 ... > 250 µg/mL
CO[C@H]1/C=C/O[C@@]2(C)Oc3c(C)c(O)c4c(O)c(c(/C=N/N5CCN(C)CC5)c(O)c4c3C2=O)NC(=O)/C(C)=C\C=C\[C@H](C)[C@H](O)[C@@H](C)[C@@H](O)[C@@H](C)[C@H](OC(C)=O)[C@@H]1C [RIFAMPIN] ... > 100 µg/mL
Cc1nc(-c2ccc(F)cc2)oc1-c1csc(Cc2ccc(F)cc2)n1 ... > 250 µg/mL
Cc1nc(-c2ccccc2)oc1-c1csc(-c2ccccc2)n1 ... > 250 µg/mL
Cc1nc(-c2ccccc2)oc1-c1csc(Cc2cccc(Cl)c2)n1 ... > 250 µg/mL

Could you please provide reported GI50 for Cc1nc(-c2ccc(F)cc2)oc1-c1csc(Cc2cccc(Cl)c2)n1 ? Thanks!
> 250 µg/mL

Identify the reported GI50 for the following entry. Cc1nc(-c2ccccc2)oc1-c1csc(Cc2ccc(Cl)cc2)n1
> 250 µg/mL
